Each record here notes measured EC50.
System: HIV-1 NL4.3 (or IIIB, CXCR4 using)
Assay: Inhibition of HIV-1 (NL4.3) replication in MT-4 cells
Type: cell-based
Conditions: Human immunodeficiency virus 1, IIIB, MT4, 120 h, MTT viability after 5 days
From the text: Assay for Inhibition of HIV-1 (NL4.3) Replication in MT-4 Cells. […] After the MT-4 cells were allowed to proliferate for 5 days, the number of viable cells was quantified by a tetrazolium-based colorimetric 3-(4,5-dimethylthiazol-2-yl)-2,5-diphenyltetrazolium bromide (MTT) procedure in 96-well microtrays. […]

Compound: O=C(Nc1ccccn1)c1ccc(CN(Cc2nc3ccccc3[nH]2)C2CCCc3cccnc32)cc1 (stereo not shown)
Recorded Measurement: < 20 µg/mL

Req: # query: EC50 of entry O=C(NCc1ccc(CN(Cc2nc3ccccc3[nH]2)C2CCCc3cccnc32)cc1)c1ccccn1 (stereo not shown)
Resp: < 20 µg/mL

Req: Same question for O=S(=O)(NCc1ccccn1)c1ccc(CN(Cc2nc3ccccc3[nH]2)C2CCCc3cccnc32)cc1 (stereo not shown) please.
Resp: < 20 µg/mL

Req: Same question for O=C(Nc1ccc(CN(Cc2nc3ccccc3[nH]2)C2CCCc3cccnc32)cc1)c1ccccn1 (stereo not shown) please.
Resp: < 20 µg/mL

Req: Same question for O=C(NCc1ccccn1)c1ccc(CN(Cc2nc3ccccc3[nH]2)C2CCCc3cccnc32)cc1 (stereo not shown) please.
Resp: < 20 µg/mL

Req: Same question for O=S(=O)(Nc1ccc(CN(Cc2nc3ccccc3[nH]2)C2CCCc3cccnc32)cc1)c1ccccn1 (stereo not shown) please.
Resp: < 20 µg/mL

Req: Same question for O=S(=O)(NCc1ccc(CN(Cc2nc3ccccc3[nH]2)C2CCCc3cccnc32)cc1)c1ccccn1 (stereo not shown) please.
Resp: < 20 µg/mL
